- assayed.target: Isocitrate dehydrogenase [NADP] cytoplasmic (Homo sapiens, UniProt O75874, R132H)
- Sequence (O75874 2-414 R132H limits assumed): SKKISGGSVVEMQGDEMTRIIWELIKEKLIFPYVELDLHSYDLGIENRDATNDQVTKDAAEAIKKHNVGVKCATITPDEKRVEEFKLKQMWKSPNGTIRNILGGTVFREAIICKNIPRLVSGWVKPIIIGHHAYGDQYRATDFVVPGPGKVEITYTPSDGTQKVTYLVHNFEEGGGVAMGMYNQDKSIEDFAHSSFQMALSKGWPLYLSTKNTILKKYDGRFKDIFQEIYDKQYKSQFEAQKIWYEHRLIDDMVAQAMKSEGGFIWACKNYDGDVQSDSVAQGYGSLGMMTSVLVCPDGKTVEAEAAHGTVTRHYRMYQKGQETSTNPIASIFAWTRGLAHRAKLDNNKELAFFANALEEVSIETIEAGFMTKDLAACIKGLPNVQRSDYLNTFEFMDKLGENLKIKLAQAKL
- protocol.text: Inhibition of IDH1 R132H mutant (unknown origin) using a-ketoglutarate as substrate by fluorescence biochemical assay
readout.kind: IC50 (µM)
Report the figure in µM without appending any unit label.

Q) Recorded IC50 for `C[C@H](Nc1nccc(N2C(=O)OC[C@]2(C)C2CC2)n1)c1ccc(CN2CCC(N)CC2)c(F)c1` , please?
A) 0.194
